molecular target: σ1-receptor (Cavia porcellus); construct: guinea pig brains were homogenized in 10 vols; (w/v) of Tris-HCl 50 mM 0.32 M sucrose; from tissue; host or cells: guinea pig brain membranes; assay: Sigma-1 receptor radioligand binding, [3H](+)pentazocine (Version A / Version B); parameters: species or system guinea pig; conditions: compound 10^−8 M, guinea pig brain membranes
readout: inhibition at 0.01 µM (%)

In [3]: df
Out[3]:
                                   compound                readout  test_result
0  CCCCN1CCC2(C1)OC(OC)c1ccccc12 (mixture of isomers)  inhibition at 0.01 µM         45.6
1  COC1Cc2ccccc2C2(CCN(CCCCc3ccccc3)C2)O1 (mixture of isomers)  inhibition at 0.01 µM           32
2  CCCCN1CCC2(C1)OC(OC)Cc1ccccc12 (mixture of isomers)  inhibition at 0.01 µM           29
3  COC1OC2(CCN(CCCCc3ccccc3)C2)c2ccccc21 (mixture of isomers)  inhibition at 0.01 µM         27.4
4  CCCCCCCCN1CCC2(C1)OC(OC)Cc1ccccc12 (mixture of isomers)  inhibition at 0.01 µM          0.8

(A) COC1OC2(CCN(Cc3ccccc3)C2)c2ccccc21 (mixture of isomers)
(B) CCCCCCCCN1CCC2(C1)OC(OC)c1ccccc12 (mixture of isomers)
Query: Between A and B , whose measured inhibition at 0.01 µM reads higher? Your answer should be the label of the entry you select.
Result: B

###

molecular target: σ1-receptor (Cavia porcellus, UniProt Q60492); construct: guinea pig brains were homogenized in 10 vols; (w/v) of Tris-HCl 50 mM 0.32 M sucrose; from tissue; host or cells: guinea pig brain membranes; assay: Sigma-1 receptor radioligand binding, [3H](+)pentazocine (Version A / Version B); set-up: species or system guinea pig; details: compound 10^−6 M, guinea pig brain membranes
Sequence (Q60492 whole entry): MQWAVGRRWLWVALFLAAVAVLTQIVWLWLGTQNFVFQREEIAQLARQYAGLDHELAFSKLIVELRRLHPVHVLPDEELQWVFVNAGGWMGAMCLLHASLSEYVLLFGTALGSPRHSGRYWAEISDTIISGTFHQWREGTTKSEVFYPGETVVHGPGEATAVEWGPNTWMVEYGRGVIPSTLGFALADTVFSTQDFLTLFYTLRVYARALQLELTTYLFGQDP
readout: % Binding σ1 10^−6 M

Completed entries (count: 2):
>>> df
                                   compound  test_result
0  CO[C@@H]1Cc2ccccc2[C@]2(CCCN(CCCc3ccccc3)C2)O1 (relative stereo)        14^ %
1  CCCCN1CCC[C@]2(C1)O[C@H](OC)Cc1ccccc12 (racemic)        49^ %

Query: Which value of % Binding σ1 10^−6 M has been reported for CCCCN1CCC[C@@]2(C1)O[C@H](OC)Cc1ccccc12 (relative stereo) in the records?
Result: 56^ %

###

target: σ1-receptor (Cavia porcellus, UniProt Q60492); construct: guinea pig brains were homogenized in 10 vols; (w/v) of Tris-HCl 50 mM 0.32 M sucrose; from tissue; host or cells: guinea pig brain membranes; assay: Sigma-1 receptor radioligand binding, [3H](+)pentazocine (Version A / Version B); parameters: species or system guinea pig; details: compound 10^−7 M, guinea pig brain membranes
readout: inhibition at 0.1 µM (%)

                                   compound               readout  test_result
0  COC1Cc2ccccc2C2(CCN(CCCCc3ccccc3)C2)O1 (mixture of isomers)  inhibition at 0.1 µM           67
1  CCCCCCCCN1CCC2(C1)OC(OC)Cc1ccccc12 (mixture of isomers)  inhibition at 0.1 µM         70.4
2  CCCCCCCCN1CCC2(C1)OC(OC)c1ccccc12 (mixture of isomers)  inhibition at 0.1 µM         91.5
3  COC1OC2(CCN(CCCCc3ccccc3)C2)c2ccccc21 (mixture of isomers)  inhibition at 0.1 µM         80.4

(1) COC1OC2(CCN(CCc3ccccc3)C2)c2ccccc21 (mixture of isomers)
(2) CO[C@@H]1Cc2ccccc2[C@@]2(CCCN(Cc3ccccc3)C2)O1
(3) CCCCN1CCC2(C1)OC(OC)Cc1ccccc12 (mixture of isomers)
Query: Rank entries according to their inhibition at 0.1 µM, from the largest number down. Answer by naming the labels in the order asked.
Result: 1, 3, 2

Values were extracted from patent US20090209568A1.
